Recorded solubility for the following compounds
assay: Solubility in pH 7.4 phosphate buffered saline; format: physicochemical; conditions: aqueous buffer

compound: Cn1cc(-n2cnc3c(NCc4nc5cc(Cl)c(Cl)cc5[nH]4)nc(N4CCOC[C@@H]4CO)nc32)cn1 [Compound 6]
value_units: µM
solubility: 0.8

compound: Cn1cc(-n2cnc3c(NCc4nc5cc(Cl)c(Cl)cc5[nH]4)nc(N4CCOCC4)nc32)cn1 [Compound 5]
value_units: µM
solubility: 0.3

compound: Cn1cc(-n2cnc3c(NCc4nc5cc(F)c(F)cc5[nH]4)nc(N4CCOCC4)nc32)cn1 [Compound 2]
value_units: µM
solubility: 0.8

Where these numbers come from: patent US11666578B2
